All figures here come from patent US10059688B2.

Tested on: A549 (EGFR WT) NSCLC cells
experimentDescription: Cell proliferation assay (MTS cell viability)
Format: cell-based
conditionLabel: Homo sapiens, 72 h; A549 cells, 3 days of exposure, MTS
pIC50: −log10 of the molar value.
Overview of reported pIC50 across a group of compounds:

Take a look at these entries with their results.
>>> print(df.to_string())
                                   compound  testresult
0  CNC(=O)C(=O)c1ccccc1Nc1nc(Nc2ccc(N3CCN(C)CC3)cc2OC)ncc1Cl [Example 47]      < 5.52
1  C=CC(=O)Nc1cccc(Nc2ncc(C(F)(F)F)c(Nc3ccccc3C(=O)C(N)=O)n2)c1 [Example 58]        6.43
2  CNC(=O)C(=O)c1ccccc1Nc1nc(Nc2ccc(F)c(OC)c2)ncc1Cl [Example 63]      < 5.52

--- query ---
**Q:** Reported pIC50 for C=CC(=O)Nc1cccc(Oc2nc(Nc3ccc(N4CCN(C)CC4)cc3OC)ncc2Cl)c1 [WZ4002, reference compound] : what is it?
**A:** < 5.52

###

experimentalTarget: EGFR (T790M) (h) (Homo sapiens (Human), UniProt P00533, T790M)
Sequence (P00533 25-1210 T790M): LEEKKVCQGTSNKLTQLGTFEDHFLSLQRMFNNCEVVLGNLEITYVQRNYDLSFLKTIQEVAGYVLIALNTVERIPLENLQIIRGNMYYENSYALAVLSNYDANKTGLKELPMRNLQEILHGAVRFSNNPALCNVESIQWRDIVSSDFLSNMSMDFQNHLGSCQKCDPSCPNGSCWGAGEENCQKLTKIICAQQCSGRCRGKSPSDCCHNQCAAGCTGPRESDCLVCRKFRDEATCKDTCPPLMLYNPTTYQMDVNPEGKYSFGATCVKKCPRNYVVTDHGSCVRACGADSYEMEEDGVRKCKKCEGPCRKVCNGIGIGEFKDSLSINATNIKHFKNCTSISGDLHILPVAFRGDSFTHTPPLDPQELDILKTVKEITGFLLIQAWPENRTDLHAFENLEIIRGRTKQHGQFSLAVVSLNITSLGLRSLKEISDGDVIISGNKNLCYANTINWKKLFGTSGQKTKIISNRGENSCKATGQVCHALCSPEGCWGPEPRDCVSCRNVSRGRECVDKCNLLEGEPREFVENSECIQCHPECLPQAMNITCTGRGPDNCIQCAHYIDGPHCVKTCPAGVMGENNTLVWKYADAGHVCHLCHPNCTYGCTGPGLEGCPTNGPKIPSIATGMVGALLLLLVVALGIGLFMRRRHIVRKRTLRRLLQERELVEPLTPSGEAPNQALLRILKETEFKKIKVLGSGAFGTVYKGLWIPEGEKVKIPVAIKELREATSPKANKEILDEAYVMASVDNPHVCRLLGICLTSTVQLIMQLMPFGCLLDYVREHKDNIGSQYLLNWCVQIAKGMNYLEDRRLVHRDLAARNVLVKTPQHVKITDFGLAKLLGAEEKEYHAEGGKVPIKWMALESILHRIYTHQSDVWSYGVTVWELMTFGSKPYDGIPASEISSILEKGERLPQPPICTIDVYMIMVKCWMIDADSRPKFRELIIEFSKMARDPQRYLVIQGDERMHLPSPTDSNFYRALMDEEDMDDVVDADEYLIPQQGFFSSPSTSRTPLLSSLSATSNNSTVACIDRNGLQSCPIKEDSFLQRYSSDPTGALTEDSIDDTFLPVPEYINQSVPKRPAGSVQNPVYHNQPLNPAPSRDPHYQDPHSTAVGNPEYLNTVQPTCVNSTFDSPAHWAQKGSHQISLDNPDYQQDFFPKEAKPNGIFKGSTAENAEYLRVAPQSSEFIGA
experimentDescription: Kinase assay, single dose inhibition (Millipore, 33P-ATP filter binding)
Assay type: biochemical
conditionLabel: 0.1 μM test compound, 10 μM ATP; remaining activity relative to DMSO control = 100%
Quick list: Activity (control) % EGFR (T790M) (h) per entry.
Provide only the numeric value, understood in %.

>>> print(df.to_string())
                               smilesrecord  testresult
0  C=C(CN1CCCCC1)C(=O)Nc1ccc(OC)c(Nc2ncc(Cl)c(Nc3ccccc3C(=O)C(=O)N(C)C)n2)c1           3

**Q:** What reported Activity (control) % EGFR (T790M) (h) corresponds to `C=C(CN(C)CCN(C)C)C(=O)Nc1cccc(Nc2ncc(Cl)c(Nc3ccccc3C(=O)C(=O)N(C)C)n2)c1` on EGFR (T790M) (h) (Homo sapiens (Human), UniProt P00533, T790M)?
**A:** 18

**Q:** Could you share what Activity (control) % EGFR (T790M) (h) was measured for `CN(C)C/C=C/C(=O)Nc1cccc(Nc2ncc(Cl)c(Nc3ccccc3C(=O)C(=O)N(C)C)n2)c1` , tested on EGFR (T790M) (h) (Homo sapiens (Human), UniProt P00533, T790M)?
**A:** 47

**Q:** Return Activity (control) % EGFR (T790M) (h) measured with EGFR (T790M) (h) (Homo sapiens (Human), UniProt P00533, T790M) given this compound: `C=CC(=O)Nc1cc(Nc2ncc(C)c(Nc3ccccc3C(=O)C(=O)N(C)C)n2)ccc1OC`
**A:** 83

**Q:** For EGFR (T790M) (h) (Homo sapiens (Human), UniProt P00533, T790M), provide Activity (control) % EGFR (T790M) (h) of `CCC(=O)Nc1cc(Nc2ncc(Cl)c(Nc3ccccc3C(=O)C(=O)N(C)C)n2)ccc1OCCN(C)C` please.
**A:** 62

**Q:** Query the reported Activity (control) % EGFR (T790M) (h) for EGFR (T790M) (h) (Homo sapiens (Human), UniProt P00533, T790M); item: `C=C(CN1CCCC1)C(=O)Nc1ccc(OC)c(Nc2ncc(Cl)c(Nc3ccccc3C(=O)C(=O)N(C)C)n2)c1`
**A:** 2
